- System: Escherichia coli TOP10;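 further: peptides expressed intracellularly from a pBAD plasmid library in pooled LB shake-flask culture, induced with 0.3% L-arabinose, DNA abundance read by NGS, three biological replicates, DESeq2 with apeglm shrinkage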
- assay_remarks: shrunken log2 fold change of peptide-encoding DNA abundance (4.5 h post-induction vs induction); higher = less antimicrobial activity (less host growth inhibition)
- conditions_used: time post-induction: 4.5 h; library: site-saturation at positions 5, 18, 19, 20
Listed here: items and their measured shrunken log2 fold change.
value_type: shrunken log2 fold change

* RRIRWRPPRLPRPRPRPVSGPRP | -0.0172
* RRIRTRPPRLPRPRPRPKLPPRP | 0.214
* RRIRGRPPRLPRPRPRPWPGPRP | 0.265
* RRIRGRPPRLPRPRPRPQTLPRP | 0.614
* RRIRARPPRLPRPRPRPKEHPRP | 0.217
* RRIRARPPRLPRPRPRPAHHPRP | 0.123
* RRIRHRPPRLPRPRPRPTGGPRP | 0.0928
* RRIRIRPPRLPRPRPRPAAKPRP | 0.463
* RRIRSRPPRLPRPRPRPEAPPRP | 0.67
* RRIRGRPPRLPRPRPRPVPIPRP | 0.372
* RRIRPRPPRLPRPRPRPIPSPRP | 0.00576
* RRIRPRPPRLPRPRPRPLKPPRP | 0.0408
* RRIRRRPPRLPRPRPRPVRTPRP | 0.328
* RRIRKRPPRLPRPRPRPPGFPRP | 0.55
* RRIRTRPPRLPRPRPRPFVLPRP | -0.296
* RRIRLRPPRLPRPRPRPIAGPRP | -0.086
* RRIRHRPPRLPRPRPRPYDSPRP | -0.0275
* RRIRERPPRLPRPRPRPQYLPRP | -0.0574
* RRIRIRPPRLPRPRPRPSQIPRP | -0.142
* RRIRVRPPRLPRPRPRPKCWPRP | 0.313
* RRIRCRPPRLPRPRPRPYIRPRP | -1.22
* RRIRMRPPRLPRPRPRPGDPPRP | 1.09
* RRIRSRPPRLPRPRPRPYHPPRP | -0.00174
* RRIRARPPRLPRPRPRPVVLPRP | 0.463
* RRIRDRPPRLPRPRPRPNDLPRP | 0.124
* RRIRFRPPRLPRPRPRPCENPRP | 0.015
* RRIRTRPPRLPRPRPRPQGKPRP | -0.108
* RRIRSRPPRLPRPRPRPSHGPRP | -0.19
* RRIRFRPPRLPRPRPRPEMDPRP | -0.00136
* RRIRWRPPRLPRPRPRPPFCPRP | 0.24
* RRIRDRPPRLPRPRPRPRAIPRP | 0.108
* RRIRVRPPRLPRPRPRPCWGPRP | -0.0908
